Please provide measured TGI for the entries that follow.
tested on: ACHN renal; experiment: NCI tumour cell line growth inhibition, 48 h

For CC(CC(=O)N1C2CC3CCC2(CS1(=O)=O)C3(C)C)[Si](C)(C)C (stereo not given) the molecule record lists TGI as > 100 µM

For Cc1[nH]c(C(=O)Nc2cccc(OC3CCNCC3)c2)c(Cl)c1Cl the molecule record lists TGI as 3.17 µM

For c1cc2c(cc1C1OCC3C(c4ccc5c(c4)OCO5)OCC13)OCO2 (stereo not given) the molecule record lists TGI as > 100 µM

For CCOC(=O)c1c(-c2ccccc2)n2c(=O)cc(C)c3c(O)c(O)cc1c32 the molecule record lists TGI as 43.1 µM

For N#CCCC1(CCC#N)S(=O)(=O)OCCOS1(=O)=O the molecule record lists TGI as > 100 µM

For COc1cccc(CCn2c(N)c(-c3cc(Cl)cc(Cl)c3)c3ccc([N+](=O)[O-])cc3c2=O)c1 the molecule record lists TGI as 22.5 µM

For O=C(c1ccccc1)c1ccc(N2C(=O)/C(=C/c3cccc(Oc4ccccc4)c3)N=C2c2ccccc2)c(N2C(=O)/C(=C/c3cccc(Oc4ccccc4)c3)N=C2c2ccccc2)c1 the molecule record lists TGI as > 100 µM

For CCOC(=O)/C=C(/C(=O)OCC)n1ccc(=O)n(Cc2cn(CCCCOC(C)=O)nn2)c1=O the molecule record lists TGI as > 100 µM

For O=C1CC(n2ccnc2)c2c(Cl)sc(Cl)c21 (stereo not given) the molecule record lists TGI as 33.2 µM

For CNC(=O)O/N=C1\N(C)CN(c2ccccc2)C12CCN(CCCC(=O)c1ccc(F)cc1)CC2 the molecule record lists TGI as > 100 µM

For CC(C)n1cc(-c2ccc3c(c2)N(C)CC3)c2c(NS(=O)(=O)c3ccn(C)n3)ccnc21 the molecule record lists TGI as > 100 µM

For CN(C)c1n2c3ccc([N+](=O)[O-])cc3n3c(N(C)C)[n+]4ccccc4c3c2c2cccc[n+]12 the molecule record lists TGI as > 100 µM

For O=C(O)c1ccc(CSc2nc3ccccc3[nH]2)cc1 the molecule record lists TGI as > 100 µM

For Cc1c2c(n3c(nc4ccccc43)c1C#N)N(c1ccc(F)cc1)CC2 the molecule record lists TGI as > 100 µM

For O=C1NC(c2ccc3ccccc3c2)Nc2ccccc21 (stereo not given) the molecule record lists TGI as > 100 µM

For Cc1cn(CC(=S)NCCc2c[nH]c3ccccc23)c(=O)[nH]c1=O the molecule record lists TGI as > 100 µM

For Nc1nc2ccc(CNc3ccc(C(=O)NC(CC(=O)O)C(=O)O)cc3)cc2c(=O)[nH]1 (stereo not given) the molecule record lists TGI as > 100 µM

For O=[N+]([O-])C(C(Cl)=C(Cl)Cl)=C(N1CCCCC1)N1CCCCC1 the molecule record lists TGI as > 100 µM

For Cc1[nH]c(=O)n2c(C)nnc2c1C(=O)O the molecule record lists TGI as > 100 µM

For COP12(OC)NC(=O)OC1(C(F)(F)F)c1ccccc1O2 (stereo not given) the molecule record lists TGI as > 100 µM
